MEASURED_TARGET: Rlig1-AMP (Homo sapiens, UniProt Q8N999)
Construct: made in house; host or cells: E. coli BL21 (DE3), pET15b-Rlig1
Sequence (Q8N999 whole entry): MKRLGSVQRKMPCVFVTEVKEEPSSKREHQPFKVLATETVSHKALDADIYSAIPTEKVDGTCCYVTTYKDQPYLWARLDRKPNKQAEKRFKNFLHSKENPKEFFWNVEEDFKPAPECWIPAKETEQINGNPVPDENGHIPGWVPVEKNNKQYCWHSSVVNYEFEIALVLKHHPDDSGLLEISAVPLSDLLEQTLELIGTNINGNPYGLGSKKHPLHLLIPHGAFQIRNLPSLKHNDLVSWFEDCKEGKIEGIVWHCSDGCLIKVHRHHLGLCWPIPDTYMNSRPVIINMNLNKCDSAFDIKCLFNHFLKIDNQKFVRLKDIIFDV
METHOD_NOTES: FRET-based high-throughput screening of inhibitors for Rlig1-AMP
Assay type: biochemical
SETUP_CONDITIONS: sheet HTS hits; MedChemExpress library
OBSERVATION_TYPE: 1-D Distance.npi
Give bare numbers.

- COMPOUND: "[N-]=[N+]=NCCOCCOCCOCCN(CCOCCOCCN)CCOCCOCCOCCN=[N+]=[N-] [N-(Amino-PEG2)-N-bis(PEG3-azide)]"
  OBSERVED_VALUE: 72.3118
- COMPOUND: "C/C(=N\\N=C(N)N)c1cc(NC(=O)CCCCCCCCC(=O)Nc2cc(/C(C)=N/N=C(N)N)cc(/C(C)=N/N=C(N)N)c2)cc(/C(C)=N/N=C(N)N)c1.Cl.Cl.Cl.Cl [Semapimod (tetrahydrochloride)]"
  OBSERVED_VALUE: 101.371
- COMPOUND: "CN1CCc2nc(C(=O)N[C@@H]3C[C@@H](C(=O)N(C)C)CC[C@@H]3NC(=O)C(=O)Nc3ccc(Cl)cn3)sc2C1.Cc1ccc(S(=O)(=O)O)cc1.O [Edoxaban (tosylate monohydrate)]"
  OBSERVED_VALUE: 77.5766

Dear reader, for each entry below, please note its 1-D Distance.npi.
1. COc1cccc2c1C(=N)c1c(O)c3c(c(O)c1C2=O)C[C@@](O)(C(C)=O)C[C@@H]3O[C@H]1C[C@H](N)[C@H](O)[C@H](C)O1.Cl [5-Iminodaunorubicin (hydrochloride)]
2. COc1cc(/C=C(\C#N)C(=O)c2ccc(O)c(O)c2)cc(I)c1O
3. O=C(O)CCCN1CCC(O[C@@H](c2ccc(Cl)cc2)c2ccccn2)CC1.O=S(=O)(O)c1ccccc1 [Bepotastine (besilate)]

Reply:
1: 90.1534; 2: 98.3407; 3: 70.3956

---

METHOD_NOTES: in vitro
SETUP_CONDITIONS: human
OBSERVATION_TYPE: viability at 24 h, 15 µM (%)
Give bare numbers, in %.

Examples with answers:
- COMPOUND: "Nc1cc(Nc2ccc(NC(=O)c3ccc(Nc4ccnc5ccccc45)cc3)cc2)ccn1"
  UNITS_OF_MEASURE: "%"
  viability at 24 h, 15 µM: 86.8
- COMPOUND: "Nc1nccc(Nc2ccc(NC(=O)c3ccc(Nc4ncnc5ccccc45)cc3)cc2)n1"
  UNITS_OF_MEASURE: "%"
  viability at 24 h, 15 µM: 93
- COMPOUND: "Cc1cc(Nc2ccc(NC(=O)c3ccc(Nc4ccnc5ccccc45)cc3)cc2)nc(N)n1 [Compound 1, SGI-1027, reference compound]"
  UNITS_OF_MEASURE: "%"
  viability at 24 h, 15 µM: 60.5
- COMPOUND: "Cc1cc(Nc2ccc(NC(=O)c3ccc(Nc4ccnc5[nH]ccc45)cc3)cc2)nc(N)n1"
  UNITS_OF_MEASURE: "%"
  viability at 24 h, 15 µM: 23.1

Next compound, viability at 24 h, 15 µM to be filled in.
Ask: Which viability at 24 h, 15 µM is listed for Cc1cc(Nc2ccc(NC(=O)c3ccc(Nc4ncnc5ccccc45)cc3)cc2)nc(N)n1 ?
Reply: 90.2

---

Kindly supply the reported Span (best-fit value) values for the records listed here.
MEASURED_TARGET: Rlig1-AMP (Homo sapiens, UniProt Q8N999)
Construct: made in house; host or cells: E. coli BL21 (DE3), pET15b-Rlig1
METHOD_NOTES: Radioactive RNA ligation assay (hit validation, 10 µM test and IC50 determination)
Assay type: biochemical
SETUP_CONDITIONS: four-parameter fit
Give bare numbers.

Examples with answers:
- SAMPLE_SMILES: "Nc1nc(Nc2ccc(NC(=O)c3ccc(Nc4ccnc5ccccc45)cc3)cc2)cc(C(F)(F)F)n1"
  MEASURED_TARGET: "Rlig1-AMP (Homo sapiens, UniProt Q8N999)"
  Span (best-fit value): 91.68
- SAMPLE_SMILES: "CNc1nccc(Nc2ccc(NC(=O)c3ccc(Nc4ccnc5ccccc45)cc3)cc2)n1"
  MEASURED_TARGET: "Rlig1-AMP (Homo sapiens, UniProt Q8N999)"
  Span (best-fit value): 91.59
- SAMPLE_SMILES: "Cc1cc(Nc2ccc(NC(=O)c3ccc(Nc4ccnc5[nH]ccc45)cc3)cc2)nc(N)n1"
  MEASURED_TARGET: "Rlig1-AMP (Homo sapiens, UniProt Q8N999)"
  Span (best-fit value): 90.69
- SAMPLE_SMILES: "Nc1cc(Nc2ccc(NC(=O)c3ccc(Nc4ccnc5ccccc45)cc3)cc2)ccn1"
  MEASURED_TARGET: "Rlig1-AMP (Homo sapiens, UniProt Q8N999)"
  Span (best-fit value): 96.63
- SAMPLE_SMILES: "Nc1nccc(Nc2ccc(NC(=O)c3ccc(Nc4ccnc5ccccc45)cc3)cc2)n1"
  MEASURED_TARGET: "Rlig1-AMP (Homo sapiens, UniProt Q8N999)"
  Span (best-fit value): 95.37
- SAMPLE_SMILES: "Cc1cc(Nc2ccc(NC(=O)c3ccc(Nc4ncnc5ccccc45)cc3)cc2)nc(N)n1"
  MEASURED_TARGET: "Rlig1-AMP (Homo sapiens, UniProt Q8N999)"
  Span (best-fit value): 90.88

Ask: Which Span (best-fit value) is listed for Nc1nccc(Nc2ccc(NC(=O)c3ccc(Nc4ncnc5ccccc45)cc3)cc2)n1 ?
Reply: 92.85

---

MEASURED_TARGET: Rlig1-AMP (Homo sapiens, UniProt Q8N999)
Construct: made in house; host or cells: E. coli BL21 (DE3), pET15b-Rlig1
METHOD_NOTES: FRET-based high-throughput screening of inhibitors for Rlig1-AMP
Assay type: biochemical
SETUP_CONDITIONS: sheet HTS hits; with enzyme
Classify as follows. Reported Raw data [w Enyzm] greater than or equal to 6000: met. Reported Raw data [w Enyzm] below: not met.

Below are worked cases with known answers.
- COMPOUND: "CC(=O)O[C@H]1C[C@@]2(C)[C@@H](C[C@@H](O)[C@H]3[C@@]4(C)CC[C@@H](O)[C@@H](C)[C@@H]4CC[C@@]32C)/C1=C(\\CCC=C(C)C)C(=O)[O-].[Na+] [Fusidic acid (sodium salt)]"
  MEASURED_TARGET: "Rlig1-AMP (Homo sapiens, UniProt Q8N999)"
  LABEL: "met"
- COMPOUND: "COc1cc(S(=O)(=O)[O-])ccc1O.[K+] [Sulfogaiacol]"
  MEASURED_TARGET: "Rlig1-AMP (Homo sapiens, UniProt Q8N999)"
  LABEL: "met"
- COMPOUND: "C/C1=C2N=C(/C=C3N=C(/C(C)=C4\\[N-]C(C(CC(N)=O)C4(C)CCC(=O)NCC(C)OP(=O)([O-])OC4C(CO)OC(n5cnc6cc(C)c(C)cc65)C4O)C4(C)N=C1C(CCC(N)=O)C4(C)CC(N)=O)C(CCC(N)=O)C\\3(C)C)C(CCC(N)=O)C/2(C)CC(N)=O.Cl.[Co+3].[OH-] (centres unmarked) [Hydroxocobalamin (monohydrochloride)]"
  MEASURED_TARGET: "Rlig1-AMP (Homo sapiens, UniProt Q8N999)"
  LABEL: "not met"
- COMPOUND: "C[C@]12C=CC(=O)N[C@@H]1CC[C@@H]1[C@@H]2CC[C@]2(C)[C@@H](C(=O)Nc3cc(C(F)(F)F)ccc3C(F)(F)F)CC[C@@H]12 [Dutasteride]"
  MEASURED_TARGET: "Rlig1-AMP (Homo sapiens, UniProt Q8N999)"
  LABEL: "met"
- COMPOUND: "C=CC1=C(C)c2cc3[n-]c(cc4nc(cc5[n-]c(cc1n2)c(C)c5C=C)C(C)=C4CCC(=O)O)c(CCC(=O)O)c3C.[Cl-].[Fe+3] [Hemin]"
  MEASURED_TARGET: "Rlig1-AMP (Homo sapiens, UniProt Q8N999)"
  LABEL: "not met"

Okay, next one:
Ask: Dear colleague, could you confirm whether COc1cc(/C=C/C(=O)NCC(O)c2ccc(O)cc2)ccc1O (centres unmarked) [N-Feruloyloctopamine] has Raw data [w Enyzm] at or above 6000?
Reply: met

---

MEASURED_TARGET: Rlig1-AMP (Homo sapiens, UniProt Q8N999)
Construct: made in house; host or cells: E. coli BL21 (DE3), pET15b-Rlig1
METHOD_NOTES: FRET-based high-throughput screening of inhibitors for Rlig1-AMP
Type: biochemical
SETUP_CONDITIONS: HTS hits; difference of raw data without and with enzyme
OBSERVATION_TYPE: 1-D Distance
Give bare numbers.

Examples with answers:
- MOLECULE: "CC(=O)[C@]1(O)Cc2c(O)c3c(c(O)c2[C@@H](O[C@H]2C[C@H](N)[C@H](O)[C@H](C)O2)C1)C(=O)c1ccccc1C3=O.Cl [Idarubicin (hydrochloride)]"
  1-D Distance: 1722
- MOLECULE: "CC(C)=CC[C@H](O)C1=CC(=O)c2c(O)ccc(O)c2C1=O [(-)-Alkannin]"
  1-D Distance: 1812

Next molecule, 1-D Distance to be filled in.
Ask: Which 1-D Distance is listed for O=C1c2c(O)ccc(O)c2C(=O)c2c(NCCNCCO)ccc(NCCNCCO)c21 ?
Reply: 308
